EXPERIMENT_NOTES: chemical genetic growth profiling, strain panel (AID 1159580);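 also: tested at 20 µM; growth read once vehicle control cultures reached saturation at 30 °C; 1 = growth at the plate median or of vehicle wells; lower values mean less growth of the strain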
RUN_CONDITIONS: S. cerevisiae deletion strains, growth OD, locus YKL068W, stronger effect = lower value
The whole screen tested about 5,500 compounds, of which about 2,000 (36%) were called active. About 18% were inconclusive and are not listed. The list shows a part of the results.
# normalized growth annotations
Note: the reply should be a number with no unit written.

Record excerpt, results attached:
# MOLECULAR_STRING, normalized growth
data = [
    ("N=C(N)c1ccc(OCCCCCOc2ccc(C(=N)N)cc2)cc1", 0.92),
    ("COc1cc(N)c(Cl)cc1C(=O)NC1CCN(Cc2ccccc2)CC1", 0.974),
]

Now look at this entry.
For record "CC(C)(Sc1cc(C(C)(C)C)c(O)c(C(C)(C)C)c1)Sc1cc(C(C)(C)C)c(O)c(C(C)(C)C)c1" the listed normalized growth is 1.01
